Reference source: patent US11253525B2

TARGET OF ASSAY: indoleamine 2,3-dioxygenase (IDO) (Homo sapiens)
Construct: replaced with media containing IFNγ (#285-IF/CF, R&D Systems) at a final concentration of 25 ng/mL; endogenous in cells; host or cells: HeLa (ATCC CCL-2), IFN-gamma stimulated
Sequence (P14902 whole entry): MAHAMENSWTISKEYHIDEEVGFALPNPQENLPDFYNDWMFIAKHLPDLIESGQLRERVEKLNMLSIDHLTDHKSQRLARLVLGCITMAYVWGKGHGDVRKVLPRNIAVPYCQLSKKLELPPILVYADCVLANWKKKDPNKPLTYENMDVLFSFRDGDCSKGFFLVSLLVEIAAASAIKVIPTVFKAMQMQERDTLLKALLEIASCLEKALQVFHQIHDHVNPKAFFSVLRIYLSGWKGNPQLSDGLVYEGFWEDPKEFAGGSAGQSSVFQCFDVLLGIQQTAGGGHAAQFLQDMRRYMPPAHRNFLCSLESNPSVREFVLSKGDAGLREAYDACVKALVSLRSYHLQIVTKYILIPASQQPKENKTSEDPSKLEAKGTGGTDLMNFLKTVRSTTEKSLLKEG
PROTOCOL SUMMARY: HeLa cell-based indoleamine 2,3-dioxygenase (IDO) assay, kynurenine production
EXPERIMENTAL SETUP: HeLa cells, IFNγ 25 ng/mL, 48 hour incubation; read-out: IDO Hela IC50
EXPERIMENTAL ENDPOINT: pIC50
In plain terms, pIC50 is the concentration in mol/L turned into minus its base-10 logarithm.

In [3]: df
Out[3]:
                                   compound  experimental_endpoint  numeric_readout
0  CCO[C@@H](c1ccc(F)cc1)c1cc(Nc2ccc(Cl)cc2)cc([C@@H](CC)CC(=O)O)c1 (single isomer, unassigned)                  pIC50             7.52

Query: Any idea what pIC50 was measured for CCO[C@@H](c1ccc([C@@H](CC)CC(=O)O)cc1Nc1cnc(COC)nc1)C(F)(F)F (single isomer, unassigned) ?
Reply: 6.36

Query: Another compound: CCO[C@H](c1ccc([C@H](COC)CC(=O)O)cc1Nc1cnc(OC)nc1)C(F)(F)F (relative stereo)
Reply: 7.00

Query: Another compound: CC[C@@H](CC(=O)O)c1ccc([C@@H](CC)N2CCOCC2)c(Nc2ccc(C#N)cc2)c1 (single isomer, unassigned)
Reply: 7.15

Query: Another compound: CCOc1ncc(Nc2cc([C@H](CC)CC(=O)O)ccc2[C@H](OC)C(F)(F)F)cn1 (relative stereo)
Reply: 8.00
